Origin of values: PubChem BioAssay AID1159580

assay: chemical genetic growth profiling, strain panel (AID 1159580);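 also: tested at 20 µM; growth read once vehicle control cultures reached saturation at 30 °C; 1 = growth at the plate median or of vehicle wells; lower values mean less growth of the strain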; settings: S. cerevisiae deletion strains, growth OD, locus YLL026W, stronger effect = lower value
Hit rate of the full screen: of about 5,500 compounds, about 2,000 (36%) were called active. Not shown: some 18% with an inconclusive outcome. The list shows a part of the results.
REPORTED_ENDPOINT: normalized growth

OCC(O)Cc1ccc2c(c1)OCO2 (centres undefined) ... 0.997 (inactive)
O=C(O)c1cc(=O)c2ccc(Cl)cc2[nH]1 ... 1.02 (inactive)
C=CCc1ccc2c(c1)OCO2 ... 1.01 (inactive)
COc1ccc2c(c1)OC[C@@H](Cc1ccc(OC)c(OC)c1)[C@@H]2O ... 0.995 (inactive)

---

Recorded normalized growth by entry
experiment: chemical genetic growth profiling, strain panel (AID 1159580); conditions: S. cerevisiae deletion strains, growth OD, locus YNL153C, strain GIM3, stronger effect = lower value
Screen size: about 5,500 compounds; about 2,000 (36%) were called active. Roughly 18% stayed inconclusive and do not appear here. The list shows a part of the results.
REPORTED_ENDPOINT: normalized growth

COc1ccc(-c2coc3c(OC)c(OC)ccc3c2=O)cc1 ... 0.955
O=C(O)[C@@H]1C[C@H](C(=O)O)N1 ... 0.986
NC1=C(c2ccccc2)C(=O)NC1=O ... 1

---

assay: chemical genetic growth profiling, strain panel (AID 1159580);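 also: tested at 20 µM; growth read once vehicle control cultures reached saturation at 30 °C; 1 = growth at the plate median or of vehicle wells; lower values mean less growth of the strain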; settings: S. cerevisiae deletion strains, growth OD, locus YML032C, strain rad52, stronger effect = lower value
The campaign covered roughly 5,500 compounds. About 2,000 (36%) were called active. Roughly 18% stayed inconclusive and do not appear here. The list shows a part of the results.
Recorded normalized growth by entry
REPORTED_ENDPOINT: normalized growth

COc1ccc(-c2c(O)c3cc4c(c(CC=C(C)C)c3oc2=O)OC(C)(C)CC4)cc1 ... 1.02 (inactive)
CCC1(c2ccc(N)cc2)CCC(=O)NC1=O (stereo not drawn) ... 1 (inactive)
CCC1(C)CC(=O)NC1=O (stereo not drawn) ... 1.01 (inactive)

---

assay: chemical genetic growth profiling, strain panel (AID 1159580);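 also: tested at 20 µM; growth read once vehicle control cultures reached saturation at 30 °C; 1 = growth at the plate median or of vehicle wells; lower values mean less growth of the strain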; conditions: S. cerevisiae deletion strains, growth OD, locus YBR021W, strain FUR4, stronger effect = lower value
In all, about 5,500 compounds went through this assay and about 2,000 (36%) were called active. About 18% were inconclusive and are not listed. The list shows a part of the results.
REPORTED_ENDPOINT: normalized growth

COC(=O)[C@@H]1C(O)CC[C@H]2CN3CCc4c([nH]c5ccccc45)[C@@H]3C[C@@H]21 (stereo partly drawn) ... 1.01
COC(=O)[C@H]1[C@H]2C[C@H]3c4[nH]c5ccccc5c4CCN3C[C@H]2CC[C@@H]1O ... 1
CC1(O)/C=C/C=C(\CO)C2CC(C)(C)C2(O)CC1 (stereo not drawn) ... 1.02

---

assay: chemical genetic growth profiling, strain panel (AID 1159580);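 also: tested at 20 µM; growth read once vehicle control cultures reached saturation at 30 °C; 1 = growth at the plate median or of vehicle wells; lower values mean less growth of the strain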; details: S. cerevisiae deletion strains, growth OD, locus YMR223W, strain ubp8, stronger effect = lower value
Among all 5,500 compounds or so, about 2,000 (36%) were called active. Roughly 18% stayed inconclusive and do not appear here. Some of the results follow.
REPORTED_ENDPOINT: normalized growth

Nc1nc2[nH]c(=O)c(=O)[nH]c2c(=O)[nH]1 ... 1.01
C=CCc1ccc2c(c1)OCO2 ... 1
COc1ccc(CC2c3cc(OC)c(OC)cc3CCN2C)cc1OC (stereo not given) ... 0.948
OCC(O)Cc1ccc2c(c1)OCO2 (stereo not given) ... 0.987
O=c1ccc2cc(O)c(O)cc2o1 ... 0.985
